- study.system: aromatase from rat ovary (Rattus norvegicus)
- Construct: Using as an enzyme sample the ovarian microsome fraction from a female rat; from tissue; host or cells: rat ovary, microsome fraction (female rat)
- experiment: Inhibitory activity on aromatase from rat ovary
- Assay type: biochemical
- condition.details: rat ovarian microsomes, 30 nM [1β-3H] androstenedione, pH 7.4, 37° C., 15 minutes; read-out: IC50 value
measurement.label: IC50 (nM)

These solved cases illustrate the format of a correct answer.
> print(dat)
                 compound.structure.string   u  reading
1    Cn1nnc2ccc(Cc3ccc(Cl)cc3Cn3cncn3)cc21  nM      0.7
2        Cn1nnc2ccc(Oc3ccccc3Cn3cncn3)cc21  nM      7.8
3  COc1ccc(Oc2ccc3nnn(C)c3c2)c(Cn2cncn2)c1  nM      1.6
4     Cn1nnc2ccc(Oc3ccc(F)cc3Cn3cncn3)cc21  nM      3.3

A: CCOC(=O)c1ccc(Oc2ccc3nnn(C)c3c2)c(Cn2cncn2)c1
B: Cn1nnc2ccc(Oc3ccc(I)cc3Cn3cncn3)cc21
Data request: Select the item with the higher value of IC50 from the options A and B listed. Output the label that corresponds to your choice.
Data returned: A

I: Cn1nnc2ccc(Oc3ccc(Br)cc3Cn3cncn3)cc21
II: Cn1nnc2ccc(Cc3ccc(C#N)cc3Cn3cncn3)cc21
III: Cn1nnc2ccc(Oc3ccc(C=O)cc3Cn3cncn3)cc21
IV: Cn1nnc2ccc(Oc3ccc(Cl)cc3Cn3cncn3)cc21
Data request: Ascending by IC50, please. // ordering of labels required in reply
Data returned: I, IV, III, II
(I: 0.3 nM, IV: 0.5 nM, III: 0.8 nM, II: 1.9 nM)

1: C=Cc1ccc(Oc2ccc3nnn(C)c3c2)c(Cn2cncn2)c1
2: Cn1nnc2ccc(Oc3ccc(C(F)(F)F)cc3Cn3cncn3)cc21
Data request: Problem: Given the entries 1 and 2 , determine which has the lower reported IC50. Output the label that corresponds to your choice.
Data returned: 1

----------
- System: plasma estradiol
- experiment: Decreasing activity on blood estrogen (plasma estradiol, PMSG-treated rats)
- Format: in vivo, female SD rats
- condition.details: Rattus norvegicus, po; 0.1 mg/kg orally, 4 hours after dosing; read-out: Ratio in plasma estradiol decrease
measurement.label: inhibition in vivo at 0.1 mg/kg (%)
Quick note: give the figure in %, leave out the unit.

> print(dat)
                                   molecule  u  reading
1  Cn1nnc2ccc(Oc3ccc(Cl)cc3Cn3cncn3)cc21 [Example 41]  %       70
2  Cn1nnc2ccc(Oc3ccccc3Cn3cncn3)cc21 [Example 44]  %       23
3  Cn1nnc2ccc(Oc3ccc(C#N)cc3Cn3cncn3)cc21 [Example 52]  %       91
4  Cn1nnc2ccc(Oc3ccc(Cl)cc3Cn3ccnc3)cc21 [Example 38]  %       44
5  Cn1nnc2ccc(Cc3ccc(C#N)cc3Cn3cncn3)cc21 [Example 80]  %       49

Data request: Recorded inhibition in vivo at 0.1 mg/kg for Cn1nnc2ccc(Oc3ccc(Br)cc3Cn3cncn3)cc21 [Example 43] with plasma estradiol, please?
Data returned: 69

----------
- study.system: aromatase from rat ovary (Rattus norvegicus)
- Construct: Using as an enzyme sample the ovarian microsome fraction from a female rat; from tissue; host or cells: rat ovary, microsome fraction (female rat)
- Sequence (P22443 1-508): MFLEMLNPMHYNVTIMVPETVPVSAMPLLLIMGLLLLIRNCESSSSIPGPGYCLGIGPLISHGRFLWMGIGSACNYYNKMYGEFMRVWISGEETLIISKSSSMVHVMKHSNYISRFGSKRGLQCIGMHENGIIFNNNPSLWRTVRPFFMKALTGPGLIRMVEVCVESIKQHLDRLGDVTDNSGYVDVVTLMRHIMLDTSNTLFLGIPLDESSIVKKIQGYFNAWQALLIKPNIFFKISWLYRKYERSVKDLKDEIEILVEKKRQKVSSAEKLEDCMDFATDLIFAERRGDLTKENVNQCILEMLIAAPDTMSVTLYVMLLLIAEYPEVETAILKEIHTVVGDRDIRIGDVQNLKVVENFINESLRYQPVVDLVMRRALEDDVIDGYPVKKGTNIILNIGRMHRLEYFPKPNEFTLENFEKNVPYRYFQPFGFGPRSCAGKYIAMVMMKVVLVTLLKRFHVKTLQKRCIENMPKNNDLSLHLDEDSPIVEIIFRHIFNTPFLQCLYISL
- experiment: Inhibitory activity on aromatase from rat ovary
- Assay type: biochemical
measurement.label: pIC50
Scale: negative log10 of molar concentration, which is what pIC50 denotes.

Data request: Recorded pIC50 for "Cn1nnc2ccc(Oc3ccc(OC(F)(F)F)cc3Cn3cncn3)cc21" with aromatase from rat ovary (Rattus norvegicus), please?
Data returned: 9.05

----------
- study.system: aromatase from rat ovary (Rattus norvegicus)
- Construct: Using as an enzyme sample the ovarian microsome fraction from a female rat; from tissue; host or cells: rat ovary, microsome fraction (female rat)
- Sequence (P22443 1-508): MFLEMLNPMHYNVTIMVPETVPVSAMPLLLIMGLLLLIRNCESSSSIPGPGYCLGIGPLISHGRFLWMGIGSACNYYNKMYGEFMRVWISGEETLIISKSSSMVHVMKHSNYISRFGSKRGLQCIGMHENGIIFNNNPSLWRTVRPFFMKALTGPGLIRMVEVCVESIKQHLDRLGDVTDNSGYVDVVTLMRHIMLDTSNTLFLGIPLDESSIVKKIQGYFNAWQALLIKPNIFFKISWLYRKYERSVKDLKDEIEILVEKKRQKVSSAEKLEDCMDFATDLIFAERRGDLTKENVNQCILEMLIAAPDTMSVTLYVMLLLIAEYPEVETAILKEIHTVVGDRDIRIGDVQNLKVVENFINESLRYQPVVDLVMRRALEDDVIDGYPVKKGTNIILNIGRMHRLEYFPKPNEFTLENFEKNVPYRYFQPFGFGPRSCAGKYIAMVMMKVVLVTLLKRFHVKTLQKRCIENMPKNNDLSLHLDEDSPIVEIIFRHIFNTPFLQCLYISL
- experiment: Inhibitory activity on aromatase from rat ovary
- Assay type: biochemical
- condition.details: rat ovarian microsomes, 30 nM [1β-3H] androstenedione, pH 7.4, 37° C., 15 minutes; read-out: IC50 value
measurement.label: IC50 (nM)

> print(dat)
                  compound.structure.string                              study.system  measurement.label  reading
1     Clc1ccc(Oc2cccc3ccccc23)c(Cn2ccnc2)c1  aromatase from rat ovary (Rattus norvegicus)               IC50        6
2     Cn1nnc2ccc(Sc3ccc(Cl)cc3Cn3cncn3)cc21  aromatase from rat ovary (Rattus norvegicus)               IC50      1.2
3    Cn1nnc2ccc(Oc3ccc(C#N)cc3Cn3cncn3)cc21  aromatase from rat ovary (Rattus norvegicus)               IC50      0.4
4   Clc1ccc(Oc2ccc3[nH]nnc3c2)c(Cn2cncn2)c1  aromatase from rat ovary (Rattus norvegicus)               IC50      0.6
5     Cn1nnc2ccc(Oc3cc(Cl)ccc3Cn3cncn3)cc21  aromatase from rat ovary (Rattus norvegicus)               IC50      1.5
6  CC(=O)c1ccc(Oc2ccc3nnn(C)c3c2)c(Cn2cncn2)c1  aromatase from rat ovary (Rattus norvegicus)               IC50      1.2
7     Cn1cnc2ccc(Oc3ccc(Cl)cc3Cn3cncn3)cc21  aromatase from rat ovary (Rattus norvegicus)               IC50      2.6
8    CCn1nnc2ccc(Oc3ccc(Cl)cc3Cn3cncn3)cc21  aromatase from rat ovary (Rattus norvegicus)               IC50      0.6

a: C#Cc1ccc(Oc2ccc3nnn(C)c3c2)c(Cn2cncn2)c1
b: Cn1nnc2ccc(Oc3ccc([N+](=O)[O-])cc3Cn3cncn3)cc21
Data request: Problem: Given the entries a and b , determine which has the lower reported IC50. Output the label that corresponds to your choice.
Data returned: a

P: Cn1nnc2ccc(Oc3ccc(Cl)cc3Cn3ccnc3)cc21
Q: Clc1ccc(Oc2ccc3ccccc3c2)c(Cn2ccnc2)c1
Data request: Select the item with the higher value of IC50 from the options P and Q listed. Output the label that corresponds to your choice.
Data returned: Q

These entries and their values trace back to patent US5587392A.
